# assay-name: NCI Yeast Anticancer Drug Screen. Data for the cln2 rad14 strain (AID 165);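 further: 0% = growth equal to vehicle treated cultures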
# condition-summary: S. cerevisiae cln2 rad14 strain, at 50.0 µM
Compounds without any hit were thinned out: in the full panel of roughly 79,000, 15% have a hit. Active and inactive are the calls of the source. No stated cut-off is given here; in the data, active means growth inhibition above about 70%; inactive means the rest.
Write down the outcome that applies. Available outcomes: t for active, f for inactive

Previously resolved entries follow.
compound	qualitative-label
CCCCSP(=O)(SCCCC)N1CCCCC1	t
O=C1NC(=O)C(O)(C2=C(O)CCC2=O)C(=O)N1	f
C#CC1(OC(C)=O)CCC2C3CCC4=CC(=O)CCC4(C)C3CCC21C (stereo unspecified)	f
c1cc2[se][se]c3c4cccc5[se][se]c(c(c1)c23)c54	f
CC(=O)O[C@@]12CO[C@@H]1CC(O)[C@@]1(C)C(=O)[C@H](O)C3=C(C)C(O)C[C@@](O)(C(OC(=O)c4ccccc4)C12)C3(C)C (stereo partly specified)	f
C#CCN(C)C(=O)N(CC#C)N=O	f

[ask] Called result for `c1ccc(C[N+]23CN4CN(CN(C4)C2)C3)cc1`
[reply] f

[ask] Called result for `CC1=NCCc2c1[nH]c1cc(O)ccc21`
[reply] f

[ask] Called result for `ClCCN(CCCl)c1ccc(/C=N/c2nc(-c3ccccc3)cs2)cc1`
[reply] f

[ask] Called result for `CCOC(=O)N[N+]12CCN(CC1)CC2`
[reply] f

[ask] Called result for CN1C(=O)c2ccccc2NC(=O)C12OC2c1ccccc1 (stereo unspecified)
[reply] f

* * *

# assay-name: NCI Yeast Anticancer Drug Screen. Data for the sgs1 mgt1 strain (AID 161);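 further: 0% = growth of cultures given vehicle only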
# condition-summary: S. cerevisiae sgs1 mgt1 strain, at 50.0 µM
Compounds without any hit were thinned out: in the full panel of roughly 79,000, 15% have a hit. Calls of active or inactive are those of the source. Cut-off read from the data, not from the text of the source: active = growth inhibition above about 70%; inactive = the rest.
Write down the outcome that applies. Available outcomes: label 1 for active, label 0 for inactive

Previously resolved entries follow.
molecule	qualitative-label
Cc1cc(Nc2ccc(N(CCCl)CCCl)cc2)c(C)cc1O	label 0
O=C(NCCc1ccccn1)c1ccc2cc(C(=O)N3CC(CCl)c4ccc([N+](=O)[O-])cc43)[nH]c2c1 (stereo not given)	label 0
N#CCc1ccccc1CC#N	label 0
O=C1NC(=S)NC(=O)C1=Cc1ccncc1	label 0
COC1CC2C=CC3C4OC2(/C(C)=C/C(C)C(C(C)O)OC1=O)C3C(O)C(C)C4OC(=O)c1ccc[nH]1 (stereo not given)	label 0

[ask] Called result for `CCOP(=O)(OCC)/C(C#N)=C/c1ccc(OC)cc1`
[reply] label 0

[ask] Called result for `CCNC(=O)N1CC2CCC(C1)N2C`
[reply] label 0

[ask] Called result for `CCOC(=O)/C(=C\c1ccc(N(C)C)cc1)[Se]c1ccccc1`
[reply] label 0

[ask] Called result for `Clc1ccc(N=c2ccc3ccccc3[oH+]2)cc1.Clc1ccc(N=c2ccc3ccccc3[oH+]2)cc1.[Co]`
[reply] label 0

[ask] Called result for O=C(Cc1ccccc1)OCC1CCCO1 (stereo not given)
[reply] label 0

[ask] Called result for `CCOP(=O)(OCC)/C(C#N)=C/c1cccn1C`
[reply] label 0

[ask] Called result for `Cc1ccc(NC(=O)CCc2ccc(N3C(N)=NC(N)=NC3(C)C)cc2Cl)cc1S(=O)(=O)F`
[reply] label 0

[ask] Called result for OCC(S)CS (stereo not given)
[reply] label 0

[ask] Called result for `CP(C)CC[PH+](CC[PH+](C)C)CC[PH+](C)C.[C-]#[O+].[C-]#[O+].[W]`
[reply] label 0
